Test system: K. pneumoniae 35
Assay: In vitro antibacterial activity (MIC)
Format: cell-based
Details: Klebsiella pneumoniae; K. pneumoniae 35; read-out: MIC
Counter-ions that a name gives are not always drawn.
observable: MIC (µg/mL)
Use µg/mL as the unit, but write only the number.

molecule	result unit	recorded measurement
CC1(C)S[C@@H]2[C@H](N=CN3CCC(CCCn4ccnc4[N+](=O)[O-])CC3)C(=O)N2[C@H]1C(=O)O [K, hydrate]	µg/mL	0.5
CC1(C)S[C@@H]2[C@H](N=CN3CCC(Cn4ccnc4CN)CC3)C(=O)N2[C@H]1C(=O)O [J, hydrochloride]	µg/mL	0.5

Turning to the following molecule.
Inquiry: # query: MIC | item CN(C)C=Nc1nccn1CCCC1CCN(C=N[C@@H]2C(=O)N3[C@@H]2SC(C)(C)[C@@H]3C(=O)O)CC1 [S, hydrate] | system: K. pneumoniae 35
Reply text: 0.5
